B1: TPR t1 (parent)
chain: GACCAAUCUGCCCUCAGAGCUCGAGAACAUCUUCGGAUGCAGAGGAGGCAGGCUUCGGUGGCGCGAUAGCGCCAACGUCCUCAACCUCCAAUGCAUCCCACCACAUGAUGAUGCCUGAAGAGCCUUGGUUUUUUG

Variants of: B1
RUN_DESCRIPTION: polymerase ribozyme fitness, log enrichment relative to wild type (log ratio); higher = more active; in vitro selection for triplet polymerase activity
For each of the variants below, state its polymerase ribozyme fitness (log ratio).
One number for each entry.

C13G G44U C82A	-3.4
G47A A68G	-3.62

For every item below, please supply its polymerase ribozyme fitness (log ratio).
1. A37U C64U C88U C102A
2. C13U A43G G60A
3. G69U C73G A105U
4. G36A C73G C101A U106C
5. G60A C72G C79A U87C U129C
6. G10U C22G A50C A118G
7. C53A C56A G58C A68U C80A
8. A2G G71U

(A)
1: -2.71; 2: -1.39; 3: -4.07; 4: -3.26; 5: -3.89; 6: -5.56; 7: -6.56; 8: -0.153

# per-item lookup of polymerase ribozyme fitness (log ratio); items listed below
1. C88U
2. U9A C20G
3. C62U C73U C79U C80U U112A
4. C40A G63U
5. A6U U92G
6. C49U C97U
7. U9A G19A G52U A105C A111G G120A

(A)
[-0.0459, -2.47, -3.4, -3.37, -2.92, -1.01, -5.2]

Batch lookup, polymerase ribozyme fitness (log ratio) per entry.
1. C88A U106A
2. C20A C22A G69U U81G U96G A121U
3. C20A U54A U131G
4. C13G C20U
5. C72G U96A

(A)
1. -0.303
2. -5.24
3. -3.27
4. -2.34
5. -2.18

For each of the items listed, what is its polymerase ribozyme fitness (log ratio)?
1. C62U C86A
2. C76U U125A
3. C15A G77A U96A
4. G35A A46U A83U U87C C104U
5. C4A G52C

(A)
1. -0.731
2. -0.353
3. -3.85
4. -4.09
5. -2.41
